- tgt: T1, human CDH6 on cells (human, UniProt P55285 54-790)
- T1 sequence: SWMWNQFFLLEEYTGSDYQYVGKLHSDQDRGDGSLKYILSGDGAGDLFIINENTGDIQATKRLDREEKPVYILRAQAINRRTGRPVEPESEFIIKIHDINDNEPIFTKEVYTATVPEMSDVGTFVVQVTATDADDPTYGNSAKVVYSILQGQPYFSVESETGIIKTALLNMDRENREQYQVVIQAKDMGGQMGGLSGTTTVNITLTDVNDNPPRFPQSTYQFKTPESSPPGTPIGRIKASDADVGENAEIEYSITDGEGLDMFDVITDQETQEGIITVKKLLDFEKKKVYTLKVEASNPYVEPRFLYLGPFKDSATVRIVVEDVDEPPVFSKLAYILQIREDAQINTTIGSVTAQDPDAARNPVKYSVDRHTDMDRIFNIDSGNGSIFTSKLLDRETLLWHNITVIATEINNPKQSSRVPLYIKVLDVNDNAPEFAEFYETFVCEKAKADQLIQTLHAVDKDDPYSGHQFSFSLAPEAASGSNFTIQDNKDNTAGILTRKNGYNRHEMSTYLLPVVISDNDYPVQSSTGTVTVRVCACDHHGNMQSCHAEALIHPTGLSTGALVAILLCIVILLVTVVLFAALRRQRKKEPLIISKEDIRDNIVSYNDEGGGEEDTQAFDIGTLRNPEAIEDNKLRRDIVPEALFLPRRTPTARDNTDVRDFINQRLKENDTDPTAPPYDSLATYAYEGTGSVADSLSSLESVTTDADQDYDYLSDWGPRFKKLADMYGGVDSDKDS
- assay: cell-based or functional assay
measure: percent inhibition at 1.22 nM ADC, KNS42 cells
Reply with the number and its unit after it.

Give a short answer stating reported percent inhibition at 1.22 nM ADC, KNS42 cells for NOV0709-SMCC-DM1 (antibody, human IgG1, lambda, V domains shown, SMCC-DM1 on primary amines, sites not stated) VH: QVQLLESGGGLVQPGGSLRLSCAASGFTFSTYYMHWVRQAPGKGLEWVSVISSDGSFTFYADSVKGRFTISRDNSKNTLYLQMNSLRAEDTAVYYCARHGYGAFDYWGQGTLVTVSS VL: DIALTQPASVSGSPGQSITISCTGTSSDVGSYNYVSWYQQHPGKAPKLMIYYVSNRPSGVSNRFSGSKSGNTASLTISGLQAEDEADYYCASYTHQGSWVFGGGTKLTVLG . -4.2%

Now let's try a different one.
Specify measured percent inhibition at 1.22 nM ADC, KNS42 cells for NOV0674-SMCC-DM1 (antibody, human IgG1, lambda, V domains shown, SMCC-DM1 on primary amines, sites not stated) VH: QVQLLESGGGLVQPGGSLRLSCAASGFTFSSYAMTWVRQAPGKGLEWVSGISGGGSNTYYADSVKGRFTISRDNSKNTLYLQMNSLRAEDTAVYYCARGGGQYFDYWGQGTLVTVSS VL: DIVLTQPPSVSGAPGQRVTISCSGSSSNIGYNYVSWYQQLPGTAPKLLIYRDNQRPSGVPDRFSGSKSGTSASLAITGLQAEDEADYYCAAWTSGSIGWVFGGGTKLTVLG . -6.82%
